Cited source: patent US20240317721A1

Target: KRasG12C (M1-K169, biotinylated on the N-terminus) (Homo sapiens (Human), UniProt P01116, G12C)
Assay: Covalent competition assay: scintillation proximity assay (SPA) quantifying covalent modification of KRASG12C
Conditions: competition with radiolabeled covalent probe (Compound B/Compound A), 2 hours incubation, 10 nM KRasG12C

>  <compound>
C=CC(=O)N1CC2(CC(n3nc(N4CCC(C(=O)N(C)C)CC4(C)C)c(-c4c(Cl)c(C)cc5[nH]ncc45)c3C)C2)C1 (single isomer, unassigned) [Example 99a]

>  <unit.tag>
nM

>  <relation>
=

>  <IC50>
2900

$$$$
>  <compound>
C=CC(=O)N1CC2(CC(n3nc(N4CCN(C5COC5)C[C@]4(C)CCOC)c(-c4c(Cl)c(C)cc5[nH]ncc45)c3C)C2)C1 (single isomer, unassigned) [Example 86a]

>  <unit.tag>
nM

>  <relation>
=

>  <IC50>
2300

$$$$
>  <compound>
C=CC(=O)N1CC2(CC(n3nc(N4CCC(O)CC4(C)C)c(-c4c(Cl)c(C)cc5[nH]ncc45)c3C)C2)C1 (single isomer, unassigned) [Example 29a]

>  <unit.tag>
nM

>  <relation>
>

>  <IC50>
5000

$$$$
>  <compound>
C=CC(=O)N1CC2(CC(n3nc(N4CC[C@@H](CN5CCN(C6COC6)CC5)CC4(C)C)c(-c4c(Cl)c(F)cc5[nH]ncc45)c3C)C2)C1 (single isomer, unassigned) [Example 245a]

>  <unit.tag>
nM

>  <relation>
=

>  <IC50>
1800

$$$$
>  <compound>
C=CC(=O)N1CC2(CC(n3nc(N4CCN(C5COC5)CC4(CC)CC)c(-c4c(Cl)c(C)cc5[nH]ncc45)c3C)C2)C1 (single isomer, unassigned) [Example 152a]

>  <unit.tag>
nM

>  <relation>
>

>  <IC50>
5000

$$$$
>  <compound>
C=CC(=O)N1CC2(CC(n3nc(N4CCC5(CN(C6COC6)C5)CC45CCC5)c(-c4c(Cl)c(C)cc5[nH]ncc45)c3C)C2)C1 (single isomer, unassigned) [Example 93b]

>  <unit.tag>
nM

>  <relation>
=

>  <IC50>
12

$$$$
>  <compound>
C=CC(=O)N1CC2(CC(n3nc(N4CCN(C5CCOCC5)CC4(C)C)c(-c4c(Cl)c(Cl)cc5[nH]ncc45)c3C)C2)C1 (single isomer, unassigned) [Example 140a]

>  <unit.tag>
nM

>  <relation>
=

>  <IC50>
971

$$$$
>  <compound>
C=CC(=O)N1CC2(CC(n3nc(N4CCN(C5COC5)CC45CCOC5)c(-c4c(Cl)c(C)cc5[nH]ncc45)c3C)C2)C1 (single isomer, unassigned) [Example 142a]

>  <unit.tag>
nM

>  <relation>
=

>  <IC50>
204

$$$$
>  <compound>
C=CC(=O)N1CC2(CC(n3nc(N4CCC(N(C)[C@@H]5CCOC5)CC4(C)C)c(-c4c(Cl)c(C)cc5[nH]ncc45)c3C)C2)C1 (single isomer, unassigned) [Example 84b]

>  <unit.tag>
nM

>  <relation>
=

>  <IC50>
14

$$$$
>  <compound>
C=CC(=O)N1CC2(CC(n3nc(N4CCCc5c(cnn5C)C4)c(-c4c(Cl)c(C)cc5[nH]ncc45)c3C)C2)C1 (single isomer, unassigned) [Example 43b]

>  <unit.tag>
nM

>  <relation>
=

>  <IC50>
758

$$$$
